Test system: Caco-2 cell line
Experiment: Caco 2 model (transport through Caco-2 monolayers, absorbed fraction)
Assay type: in vitro ADME
Conditions: apical to basolateral, pH 7.8, 37° C., test concentration 1 mM / 100 μM, from Papp via sigmoidal calibration curve
Where a name gives a salt, the structure may show the parent alone.
attributeMeasured: Absorbed fraction (%)

c1cnc(CN[C@@H]2C[C@@H]3C[C@H]2[C@@H]2CCC[C@H]32)cn1 (racemic) | 100
c1cncc(CN[C@@H]2C[C@@H]3C[C@H]2[C@@H]2CCC[C@H]32)c1 (racemic) [Example 1, Hydrochloride] | 100
